LD50 at 24 h for assorted compounds
assay: Toxicity in ip dosed Mus musculus albino (mouse) after 24 hr; assay type: organism-based; conditions: in vivo
Unit mg/kg implied. Number only.

COMPOUND	VALUE TYPE	ENDPOINT VALUE
Cc1ccc(NC(=O)c2c(N3CCCC3=O)c(C#N)c3n2CCC3)cc1	LD50 at 24 h	1010

Query block: Consider the compound CCC1(c2ccccc2)C(=O)NC(=O)NC1=O [PHENOBARBITAL] and give its measured LD50 at 24 h.
Result block: 251

---

Parameter: Activity. Scope: all listed entries.
tested on: Mus musculus; assay: Anticonvulsant activity in Mus musculus Swiss albino (mouse) assessed as protection against pentylenetetrazole-induced seizures at 100 mg/kg, ip administered 1 hr prior to pentylenetetrazole-challenge measured up to 1 hr relative to control; format: functional; conditions: route intraperitoneal
Form entry: value (%) — number only.

Here are 10 molecules together with their reported answers.
STRUCTURE SMILES STRING	ENDPOINT VALUE
Cc1ccc(N2CC(=O)N(C)c3c(C#N)c4n(c3C2=O)CCC4)cc1	20
N#Cc1c2c(n3c1CCC3)C(=O)N(c1ccccc1)CC(=O)N2	40
N#Cc1c(NC(=O)CCl)c(C(=O)Nc2ccccc2)n2c1CCC2	40
CN1C(=O)CN(c2ccccc2)C(=O)c2c1c(C#N)c1n2CCC1	40
Cc1ccc(NC(=O)c2c(NC(=O)CCCCl)c(C#N)c3n2CCC3)cc1	40
Cc1ccc(NC(=O)c2c(NC(=O)CCl)c(C#N)c3n2CCC3)cc1	40
N#Cc1c2c(n3c1CCC3)C(=O)N(c1ccc(Cl)cc1)CC(=O)N2	20
N#Cc1c(N2CCCC2=O)c(C(=O)Nc2ccccc2)n2c1CCC2	0
N#Cc1c(N2CCCC2=O)c(C(=O)Nc2ccc(Cl)cc2)n2c1CCC2	0
N#Cc1c(NC(=O)CCCCl)c(C(=O)Nc2ccccc2)n2c1CCC2	60

Query block: Query: Activity; subject: Cc1ccc(N2CC(=O)Nc3c(C#N)c4n(c3C2=O)CCC4)cc1
Result block: 20

Query block: Need Activity, item CN1C(=O)CN(c2ccc(Cl)cc2)C(=O)c2c1c(C#N)c1n2CCC1
Result block: 40

Query block: Given the molecule N#Cc1c(NC(=O)CCCCl)c(C(=O)Nc2ccc(Cl)cc2)n2c1CCC2 , what is its reported Activity?
Result block: 40

Query block: What measured Activity goes with Cc1ccc(NC(=O)c2c(N3CCCC3=O)c(C#N)c3n2CCC3)cc1 ?
Result block: 0

Query block: Any idea what its Activity is? The molecule is N#Cc1c(NC(=O)CCl)c(C(=O)Nc2ccc(Cl)cc2)n2c1CCC2
Result block: 60
